- Tested on: IGROV1
- assay_name: cells
- Type: cell-based
- test_conditions: IGROV1, 10^−5 M, 48 h
# Growth percent (G%) listing for each entry below
Please give a number only; it is taken to be in %.

Examples with answers:
compound	unit_info	result
O=C1c2ccccc2C(=O)c2c1oc1c2c(=O)[nH]c2ccccc21 [3a]	%	55.11
Cn1c(=O)c2c(=O)c3c4c(oc3oc2c2ccccc21)C(=O)c1ccccc1C4=O [5a]	%	65.92

Attention now turns to another entry.
get_value(item= CCn1c(=O)c2c(=O)c3c4c(oc3oc2c2ccccc21)C(=O)c1ccccc1C4=O [5b] , readout=Growth percent (G%)) returns 68.31

Taken from paper PMC6543826.
